Tested on: MDA-MB-436
Assay: Anticancer activity against ERalpha negative human MDA-MB-436 cells assessed as cell growth inhibition incubated for 72 hrs by alamar blue assay
Assay type: functional, cell-based
Conditions: MDA-MB-436, 72 h
pIC50: −log10 of the molar value.
Assay Endpoint: pIC50

[[record]]
compound = "O=C1Nc2c(C(F)(F)F)cccc2[C@]1(c1ccc(O)cc1)C1CCC(F)(F)CC1"
measured_result = 4.26

[[record]]
compound = "O=C1Nc2c(C(F)(F)F)cccc2C1(c1ccc(O)cc1)c1ccc(OC(F)(F)F)cc1 (configuration not stated)"
measured_result = 4.85


* * *

Test: Toxicity in iv dosed CD-1 mouse assessed as maximum tolerated dose administered as single dose
Format: organism-based
Conditions: in vivo
Assay Endpoint: MTD (mg/kg)

[[record]]
smiles_text = "O=C1Nc2c(C(F)(F)F)cccc2[C@]1(c1ccc(O)cc1)C1CCC(F)(F)CC1"
assay_endpoint = "MTD"
readout_units = "mg/kg"
measured_result = 95


* * *

Experiment: Oral bioavailability in CD-1 mouse at 40 mg/kg by LC-MS/MS analysis
Type: ADME, organism-based
Conditions: in vivo
Assay Endpoint: bioavailability (%)

[[record]]
smiles_text = "O=C1Nc2c(C(F)(F)F)cccc2[C@]1(c1ccc(O)cc1)C1CCC(F)(F)CC1"
measured_result = 6


* * *

Experiment: Toxicity in iv dosed Sprague-Dawley rat assessed as maximum tolerated dose administered as single dose
Assay type: organism-based
Details: in vivo
compounds and their reported MTD
Assay Endpoint: MTD (mg/kg)

[[record]]
compound = "O=C1Nc2c(C(F)(F)F)cccc2C1(c1ccc(O)cc1)c1ccc(OC(F)(F)F)cc1 (configuration not stated)"
assay_endpoint = "MTD"
value_relation_sign = "="
measured_result = 10

[[record]]
compound = "O=C1Nc2c(C(F)(F)F)cccc2[C@]1(c1ccc(O)cc1)C1CCC(F)(F)CC1"
assay_endpoint = "MTD"
value_relation_sign = ">"
measured_result = 50


* * *

Experiment: Cmax in CD-1 mouse at 20 mg/kg, iv by LC-MS/MS analysis
Format: ADME, organism-based
Parameters: dose 20 mg/kg, route iv
Conditions: CD-1, mouse, in vivo, read-out: Cmax
Assay Endpoint: Cmax (ng/mL)

[[record]]
smiles_text = "O=C1Nc2c(C(F)(F)F)cccc2[C@]1(c1ccc(O)cc1)C1CCC(F)(F)CC1"
readout_units = "ng/mL"
measured_result = 14700


* * *

Assay: Half life in mouse
Format: ADME, organism-based
Details: in vivo
Assay Endpoint: half-life

[[record]]
compound = "O=C1Nc2c(C(F)(F)F)cccc2C1(c1ccc(O)cc1)c1ccc(OC(F)(F)F)cc1 (stereo unspecified)"
measured_result = "> 2 h"


* * *

Assay: Stability of the compound in simulated gastric fluid assessed as half life measured upto 120 mins by LC-MS/MS analysis
Assay type: ADME
Assay Endpoint: half-life (min)

[[record]]
smiles_text = "O=C1Nc2c(C(F)(F)F)cccc2[C@]1(c1ccc(O)cc1)C1CCC(F)(F)CC1"
measured_result = 56


* * *

Test: Half life in CD-1 mouse at 20 mg/kg, iv by LC-MS/MS analysis
Assay type: ADME, organism-based
Details: CD-1, mouse, in vivo
Assay Endpoint: half-life (min)

[[record]]
smiles_text = "O=C1Nc2c(C(F)(F)F)cccc2[C@]1(c1ccc(O)cc1)C1CCC(F)(F)CC1"
assay_endpoint = "half-life"
readout_units = "min"
measured_result = 18


* * *

Test: Stability of the compound in simulated gastric fluid assessed as compound remaining measured after 120 mins by LC-MS/MS
Format: ADME
Conditions: read-out: Stability
Each entry below carries its reported remaining at 2 h.
Assay Endpoint: remaining at 2 h (%)

[[record]]
compound = "O=C1Nc2c(C(F)(F)F)cccc2[C@]1(c1ccc(O)cc1)C1CCC(F)(F)CC1"
readout_units = "%"
measured_result = 13

[[record]]
compound = "O=C1Nc2c(C(F)(F)F)cccc2C1(c1ccc(O)cc1)c1ccc(OC(F)(F)F)cc1 (stereo not given)"
readout_units = "%"
measured_result = 93

[[record]]
compound = "O=C1Nc2c(C(F)(F)F)cccc2[C@@]1(c1ccc(O)cc1)N1CCC(F)(F)C1"
readout_units = "%"
measured_result = 20

[[record]]
compound = "O=C1Nc2c(C(F)(F)F)cccc2[C@@]1(c1ccc(O)cc1)N1CCCC(F)(F)C1"
readout_units = "%"
measured_result = 0

[[record]]
compound = "O=C1Nc2c(C(F)(F)F)cccc2[C@@]1(c1ccc(O)cc1)N1CC(F)(F)C(F)(F)C1"
readout_units = "%"
measured_result = 27


* * *

Recorded measurements of MTD, one per entry
Experiment: Toxicity in po dosed CD-1 mouse assessed as maximum tolerated dose administered as single dose
Format: organism-based
Conditions: in vivo
Assay Endpoint: MTD

[[record]]
molecule = "O=C1Nc2c(C(F)(F)F)cccc2C1(c1ccc(O)cc1)c1ccc(OC(F)(F)F)cc1 (configuration not stated)"
assay_endpoint = "MTD"
measured_result = "> 150 mg/kg"

[[record]]
molecule = "O=C1Nc2c(C(F)(F)F)cccc2[C@]1(c1ccc(O)cc1)C1CCC(F)(F)CC1"
assay_endpoint = "MTD"
measured_result = "> 200 mg/kg"


* * *

Tested on: MDA-MB-231
Assay: Anticancer activity against ERalpha negative human MDA-MB-231 cells assessed as cell growth inhibition incubated for 72 hrs by alamar blue assay
Type: functional, cell-based
Conditions: MDA-MB-231, 72 h
Each record is given satisfied if its reported IC50 is strictly below 30 µM. Records at or above 30 µM are given not satisfied.

[[record]]
molecule = "O=C1Nc2c(C(F)(F)F)cccc2C1(c1ccc(O)cc1)c1ccc(OC(F)(F)F)cc1 (stereo not given)"
tested_target = "MDA-MB-231"
cat = "satisfied"

[[record]]
molecule = "O=C1Nc2c(C(F)(F)F)cccc2[C@@]1(c1ccc(O)cc1)N1CCCC(F)(F)C1"
tested_target = "MDA-MB-231"
cat = "satisfied"

[[record]]
molecule = "O=C1Nc2c(C(F)(F)F)cccc2[C@@]1(c1ccc(O)cc1)N1CC(F)(F)C(F)(F)C1"
tested_target = "MDA-MB-231"
cat = "satisfied"

[[record]]
molecule = "O=C1Nc2c(C(F)(F)F)cccc2[C@]1(c1ccc(O)cc1)C1CCC(F)(F)CC1"
tested_target = "MDA-MB-231"
cat = "not satisfied"

[[record]]
molecule = "O=C1Nc2c(C(F)(F)F)cccc2[C@@]1(c1ccc(O)cc1)N1CCC(F)(F)C1"
tested_target = "MDA-MB-231"
cat = "not satisfied"


* * *

Experiment: AUC in CD-1 mouse at 20 mg/kg, iv by LC-MS/MS analysis
Format: ADME, organism-based
Set-up: dose 20 mg/kg, route iv
Details: CD-1, mouse, in vivo, read-out: AUC
Assay Endpoint: AUC

[[record]]
smiles_text = "O=C1Nc2c(C(F)(F)F)cccc2[C@]1(c1ccc(O)cc1)C1CCC(F)(F)CC1"
measured_result = "6300 ng·h/mL"

